assay: in vivo; details: iv, 25 mg/kg i.v., read-out: Toxicity (Mortality)
Result Type: mortality (%)
Numeric only. Scale: %

Requested read-out: mortality. Entry: Cc1cccc(C)c1NC(=O)CN1CCN(CCCC(c2ccc(F)cc2)c2ccc(F)cc2)CC1 [LIDOFLAZINE, reference compound]
50

----------
test system: anaesthetized dog; experiment: Antiangorous activity on anaesthetized dog: consumption of oxygen in the left ventricule and cardiac effort (KATZ's index); assay type: in vivo; conditions: 0.625 mg/kg i.v. slow perfusion
Result Type: Diminution in consumption of O2: in time (min)
Numeric only. Scale: min

# returns recorded Diminution in consumption of O2: in time (system: anaesthetized dog) for COc1cc(/C=C/C(=O)N2CCN(CC(O)COc3ccc(CC(N)=O)c4c3OCCO4)CC2)cc(OC)c1OC (stereo not drawn)
30

Again, but for CCOC(=O)Nc1ccc(OCC(O)CN2CCN(C(=O)/C=C/c3cc(OC)c(OC)c(OC)c3)CC2)c2c1OCCO2 (stereo not drawn)
60

Again, but for COc1cc(/C=C/C(=O)N2CCN(CC(O)COc3ccc(NC(C)=O)c4c3OCCCO4)CC2)cc(OC)c1OC (stereo not drawn)
30

Again, but for CNC(=O)c1ccc(OCCCN2CCN(C(=O)/C=C/c3cc(OC)c(OC)c(OC)c3)CC2)c2c1OCCO2
30

Again, but for CCC(=O)Nc1ccc(OCC(O)CN2CCN(C(=O)/C=C/c3cc(OC)c(OC)c(OC)c3)CC2)c2c1OCCO2 (stereo not drawn)
30

Again, but for COc1cc(/C=C/C(=O)N2CCN(CC(O)COc3c(OC)cc(C(C)=O)cc3OC)CC2)cc(OC)c1OC (stereo not drawn)
45

Again, but for COc1cc(/C=C/C(=O)N2CCN(CC(O)COc3ccc(NC(=O)c4ccccc4)c4c3OCCO4)CC2)cc(OC)c1OC (stereo not drawn)
30

Again, but for COc1cc(/C=C/C(=O)N2CCN(CC(O)COc3ccc(NC(=O)C4CCCCC4)c4c3OCCO4)CC2)cc(OC)c1OC (stereo not drawn)
25

Again, but for CNC(=O)Nc1ccc(OCC(O)CN2CCN(C(=O)/C=C/c3cc(OC)c(OC)c(OC)c3)CC2)cc1 (stereo not drawn)
15

----------
assay: in vivo; settings: iv, 400 mg/kg i.v., read-out: Toxicity (Mortality)
Result Type: mortality
# output: number + unit

Requested read-out: mortality. Entry: COc1cc(/C=C/C(=O)N2CCN(CC(O)COc3ccc(C(C)=O)c4c3OCO4)CC2)cc(OC)c1OC (stereo not shown) [780 308]
10%

Again, but for COc1cc(/C=C/C(=O)N2CCN(CC(O)COc3ccc(NC(C)=O)c4c3OCCCO4)CC2)cc(OC)c1OC (stereo not shown) [780 393]
10%

Again, but for COc1cc(/C=C/C(=O)N2CCN(CCCOc3ccc(C(C)=O)c4c3OCCO4)CC2)cc(OC)c1OC [760 939]
20%

Again, but for COc1cc(/C=C/C(=O)N2CCN(CC(O)COc3ccc(OC(C)=O)c4c3OCCO4)CC2)cc(OC)c1OC (stereo not shown) [780 004]
10%

Again, but for COc1cc(/C=C/C(=O)N2CCN(CC(O)COc3cccc(NC(C)=O)c3)CC2)cc(OC)c1OC (stereo not shown) [770 844]
0%

Again, but for COc1cc(NC(C)=O)ccc1OCC(O)CN1CCN(C(=O)/C=C/c2cc(OC)c(OC)c(OC)c2)CC1 (stereo not shown) [770 487]
30%

Again, but for CNC(=O)Nc1ccc(OCC(O)CN2CCN(C(=O)/C=C/c3cc(OC)c(OC)c(OC)c3)CC2)cc1C (stereo not shown) [770 898]
0%

----------
Assignment: determine reported Diminution in consumption of O2: in time for the given compounds.
tested on: anaesthetized dog; assay: Antiangorous activity on anaesthetized dog: consumption of oxygen in the left ventricule and cardiac effort (KATZ's index); type: in vivo; details: 1.25 mg/kg i.v. slow perfusion
Numeric only. Scale: min

Requested read-out: Diminution in consumption of O2: in time. Entry: COc1cc(/C=C/C(=O)N2CCN(CCCOc3ccc(C(C)=O)c4c3OCCO4)CC2)cc(OC)c1OC [760 939]
30

Again, but for COc1cc(/C=C/C(=O)N2CCN(CC(O)COc3ccc(CO)c4c3OCCO4)CC2)cc(OC)c1OC (stereo not drawn) [760 705]
38

Again, but for COc1cc(/C=C/C(=O)N2CCCN(CC(O)COc3ccc(C(C)=O)c4c3OCCO4)CC2)cc(OC)c1OC (stereo not drawn) [760 622]
30

Again, but for CNC(=O)c1ccc(OCC(O)CN2CCN(C(=O)/C=C/c3cc(OC)c(OC)c(OC)c3)CC2)cc1 (stereo not drawn) [770 135]
30

Again, but for COc1cc(/C=C/C(=O)N2CCN(CC(O)COc3ccc(C(=O)NC4CCCCC4)c4c3OCCO4)CC2)cc(OC)c1OC (stereo not drawn) [770 831]
30

Again, but for COc1cc(/C=C/C(=O)N2CCN(CC(O)COc3ccc(NC(C)=O)c4c3CCC4)CC2)cc(OC)c1OC (stereo not drawn) [771 306]
15

Again, but for COc1cc(/C=C/C(=O)N2CCN(CC(O)COc3ccc(OC(C)=O)c4c3OCCO4)CC2)cc(OC)c1OC (stereo not drawn) [780 004]
30

Again, but for CNC(=O)N(C)c1ccc(OCC(O)CN2CCN(C(=O)/C=C/c3cc(OC)c(OC)c(OC)c3)CC2)c2c1OCCO2 (stereo not drawn) [771 238]
30

Again, but for COc1cc(/C=C/C(=O)N2CCN(CC(O)COc3ccc(OC)c4c3OCCO4)CC2)cc(OC)c1OC (stereo not drawn) [780 009]
35

----------
test system: anaesthetized dog; assay: Antiangorous activity on anaesthetized dog: consumption of oxygen in the left ventricule and cardiac effort (KATZ's index); type: in vivo; conditions: Canis lupus familiaris, iv, 2.3 mg/kg i.v. slow perfusion, read-out: Diminution in the cardiac effort (IK)
Result Type: inhibition in vivo at 2.3 mg/kg (%)
Numeric only. Scale: %

Requested read-out: inhibition in vivo at 2.3 mg/kg. Entry: COc1cc(/C=C/C(=O)N2CCN(CC(O)COc3ccc(Cl)cc3)CC2)cc(OC)c1OC (stereo not drawn) [760 476]
5

Again, but for COc1cc(/C=C/C(=O)N2CCN(CC(O)COc3ccccc3F)CC2)cc(OC)c1OC (stereo not drawn) [760 619]
44

Again, but for COc1cc(/C=C/C(=O)N2CCN(CC(O)COc3ccc(C#N)cc3)CC2)cc(OC)c1OC (stereo not drawn) [760 501]
4

----------
Assay: in vivo
Details: iv, 255 mg/kg i.v., read-out: Toxicity (Mortality)
From the text: *LD50 or percentage of mortality which is given between brackets
Result Type: mortality (%)
Numeric only. Scale: %

Requested read-out: mortality. Entry: COc1cc(/C=C/C(=O)N2CCN(CC(O)COc3ccccc3C(C)=O)CC2)cc(OC)c1OC (stereo not shown) [760 455]
50

----------
Assignment: determine reported mortality for the given compounds.
assay: in vivo; details: iv, 400 mg/kg i.v., read-out: Toxicity (Mortality)

Requested read-out: mortality. Entry: CNC(=O)Nc1ccc(OCCCN2CCN(C(=O)/C=C/c3cc(OC)c(OC)c(OC)c3)CC2)c2c1OCCO2
30%

Again, but for CCCC(=O)Nc1ccc(OCC(O)CN2CCN(C(=O)/C=C/c3cc(OC)c(OC)c(OC)c3)CC2)cc1 (stereo not shown)
40%

Again, but for CCC(=O)Nc1ccc(OCC(O)CN2CCN(C(=O)/C=C/c3cc(OC)c(OC)c(OC)c3)CC2)c2c1OCCO2 (stereo not shown)
40%

Again, but for COc1cc(/C=C/C(=O)N2CCN(CC(O)COc3ccc(C(=O)Nc4ccccc4)c4c3OCCO4)CC2)cc(OC)c1OC (stereo not shown)
10%

----------
system: anaesthetized dog; assay: Antiangorous activity on anaesthetized dog: consumption of oxygen in the left ventricule and cardiac effort (KATZ's index); assay type: in vivo; conditions: 0.625 mg/kg i.v. slow perfusion
Result Type: Diminution in consumption of O2: in time (min)
Numeric only. Scale: min

Requested read-out: Diminution in consumption of O2: in time. Entry: COc1cc(/C=C/C(=O)N2CCN(CC(O)COc3ccc(C(=O)OC(C)(C)C)c4c3OCCO4)CC2)cc(OC)c1OC (stereo not shown)
15

Again, but for CCCCC(=O)Nc1ccc(OCC(O)CN2CCN(C(=O)/C=C/c3cc(OC)c(OC)c(OC)c3)CC2)c2c1OCCO2 (stereo not shown)
30

Again, but for CNC(=O)Nc1ccc(OCC(O)CN2CCN(C(=O)/C=C/c3cc(OC)c(OC)c(OC)c3)CC2)c2c1OCCCO2 (stereo not shown)
15

Again, but for COc1cc(/C=C/C(=O)N2CCN(CC(O)COc3ccc(NC(=O)C(C)(C)C)c4c3OCCO4)CC2)cc(OC)c1OC (stereo not shown)
30

Again, but for CNC(=O)Cc1ccc(OCC(O)CN2CCN(C(=O)/C=C/c3cc(OC)c(OC)c(OC)c3)CC2)c2c1OCCO2 (stereo not shown)
15

Again, but for CCCC(=O)Nc1ccc(OCC(O)CN2CCN(C(=O)/C=C/c3cc(OC)c(OC)c(OC)c3)CC2)c2c1OCCO2 (stereo not shown)
60

Again, but for COc1cc(/C=C/C(=O)N2CCN(CC(O)COc3ccc(NC(=O)C(C)C)c4c3OCCO4)CC2)cc(OC)c1OC (stereo not shown)
15
